Origin of the recorded values: patent US20230114728A1

test system: K. pneumoniae 848844 producing SHV-11 and KPC-2
parameter-measured: MIC

Below is a list of molecules. For each, state its recorded MIC.
1. O=C(NCCCN1CCN(C(=O)NC(C(=O)N[C@H]2Cc3cccc(C(=O)O)c3OB2O)c2ncc(O)cc2F)C(=O)C1=O)c1ccc(O)c(O)c1Cl (stereo partly drawn) [Example 1]
2. CCN1CCN(C(=O)N[C@@H](C(=O)N[C@H]2Cc3cccc(C(=O)O)c3OB2O)c2cc(O)cc(O)c2)C(=O)C1=O (single isomer, unassigned) [Example 82]
3. CCN1CCN(C(=O)NC(C(=O)N[C@H]2Cc3ccc(S)c(C(=O)O)c3OB2O)c2csc(N)n2)C(=O)C1=O (stereo partly drawn) [Example 54]
4. CCN1CCN(C(=O)N[C@H](C(=O)N[C@H]2Cc3ccc(F)c(C(=O)O)c3OB2O)c2c(F)cc(O)c(O)c2Cl)C(=O)C1=O (single isomer, unassigned) [Example 125]
5. O=C(O)c1cccc2c1OB(O)[C@@H](NC(=O)[C@H](NC(=O)N1CCN(CC(F)(F)F)C(=O)C1=O)c1c(F)cc(O)cc1F)C2 (single isomer, unassigned) [Example 215]
6. CCN1CCN(C(=O)N[C@H](C(=O)N[C@H]2Cc3cccc(C(=O)O)c3OB2O)c2ccc(C(=O)O)cc2O)C(=O)C1=O (single isomer, unassigned) [Example 143]
7. NCCCN1CCN(C(=O)NC(C(=O)N[C@H]2Cc3cccc(C(=O)O)c3OB2O)c2c(F)cc(O)cc2F)C(=O)C1=O (stereo partly drawn) [Example 183]

(A)
["32 to 64 µg/mL", "> 128 µg/mL", "> 128 µg/mL", "32 to 64 µg/mL", "> 128 µg/mL", "> 128 µg/mL", "32 to 64 µg/mL"]

Need MIC for each of these molecules.
1. NCCCN1CCN(C(=O)NC(C(=O)N[C@H]2Cc3ccc(F)c(C(=O)O)c3OB2O)c2c(F)cc(O)cc2F)C(=O)C1=O (stereo partly drawn) [Example 178]
2. CCN1CCN(C(=O)NC(C(=O)N[C@H]2Cc3cccc(C(=O)O)c3OB2O)c2cccc(S(N)(=O)=O)c2)C(=O)C1=O (stereo partly drawn) [Example 99]

(A)
["32 to 64 µg/mL", "32 to 64 µg/mL"]

Field: MIC. Fill in for each record below.
1. NS(=O)(=O)Nc1cccc([C@H](NC(=O)N2CCN(CC(F)(F)F)C(=O)C2=O)C(=O)N[C@H]2Cc3cccc(C(=O)O)c3OB2O)c1 (single isomer, unassigned) [Example 216]
2. NCCN1CCN(C(=O)N[C@H](C(=O)N[C@H]2Cc3cccc(C(=O)O)c3OB2O)c2ccc(O)cc2F)C(=O)C1=O (single isomer, unassigned) [Example 88]

(A)
> 128 µg/mL
> 128 µg/mL

MIC for CCN1CCN(C(=O)N[C@H](C(=O)N[C@H]2Cc3cccc(C(=O)O)c3OB2O)c2ccc(C(=O)O)cc2)C(=O)C1=O (single isomer, unassigned) [Example 123] is > 128 µg/mL

---

In what follows, each item is paired with its MIC for E. coli AG100A.

Looking up NCCN1CCN(C(=O)NC(C(=O)N[C@H]2Cc3cccc(C(=O)O)c3OB2O)c2ccc(C(=O)O)cc2O)C(=O)C1=O (stereo partly drawn) , I found its MIC recorded as 32 to 64 µg/mL

The measured MIC associated with CCN1CCN(C(=O)N[C@H](C(=O)N[C@H]2Cc3cccc(C(=O)O)c3OB2O)c2ccc(C(=O)O)c(Cl)c2)C(=O)C1=O (single isomer, unassigned) reads 8 to 16 µg/mL

Lab note: NCCN1CCN(C(=O)N[C@H](C(=O)N[C@H]2Cc3cccc(C(=O)O)c3OB2O)c2c(F)cccc2Cl)C(=O)C1=O (single isomer, unassigned) gave MIC of 32 to 64 µg/mL

Input NCCN1CCN(C(=O)NC(C(=O)N[C@H]2Cc3cccc(C(=O)O)c3OB2O)c2c(F)cc(O)cc2Cl)C(=O)C1=O (stereo partly drawn) . Output MIC: 2 to 4 µg/mL

response.value for NC1(CN2CCN(C(=O)NC(C(=O)N[C@H]3Cc4cccc(C(=O)O)c4OB3O)c3cccc(NS(N)(=O)=O)c3)C(=O)C2=O)CC1 (stereo partly drawn) (field: MIC) = 8 to 16 µg/mL

Batch lookup, MIC per entry.
1. NS(=O)(=O)Nc1cccc(C(NC(=O)N2CCN(CCF)C(=O)C2=O)C(=O)N[C@H]2Cc3cccc(C(=O)O)c3OB2O)c1 (stereo partly drawn)
2. CCN1CCN(C(=O)NC(C(=O)N[C@H]2Cc3cccc(C(=O)O)c3OB2O)c2ccc(C(=O)O)c(OC)c2)C(=O)C1=O (stereo partly drawn)
3. NS(=O)(=O)Nc1cccc([C@H](NC(=O)N2CCN(CC(F)(F)F)C(=O)C2=O)C(=O)N[C@H]2Cc3cccc(C(=O)O)c3OB2O)c1 (single isomer, unassigned)
4. NCCN1CCN(C(=O)N[C@H](C(=O)N[C@H]2Cc3cccc(C(=O)O)c3OB2O)c2cc(F)c(O)c(F)c2)C(=O)C1=O (single isomer, unassigned)

(A)
2 to 4 µg/mL
8 to 16 µg/mL
32 to 64 µg/mL
8 to 16 µg/mL

Below is a list of molecules. For each, state its recorded MIC.
1. CCN1CCN(C(=O)NC(C(=O)N[C@H]2Cc3cccc(C(=O)O)c3OB2O)c2ccc(O)c(Cl)c2F)C(=O)C1=O (stereo partly drawn)
2. NCCN1CCN(C(=O)NC(C(=O)N[C@H]2Cc3cccc(C(=O)O)c3OB2O)c2cc(Cl)c(O)cc2F)C(=O)C1=O (stereo partly drawn)
3. CCN1CCN(C(=O)N[C@@H](C(=O)N[C@H]2Cc3cccc(C(=O)O)c3OB2O)c2ccc(C(=O)O)cc2O)C(=O)C1=O (single isomer, unassigned)

(A)
2 to 4 µg/mL
0.5 to 1 µg/mL
8 to 16 µg/mL

---

system: N. gonorrhoeae WHO Q; test: Liquid broth MIC in Fastidious broth; format: cell-based; settings: Neisseria gonorrhoeae, read-out: Minimum Inhibitory Concentration, N. gonorrhoeae WHO Q
Exercise: state measured MIC for each of the compounds provided.

Worked cases, MIC given:
NC1(CN2CCN(C(=O)N[C@H](C(=O)N[C@H]3Cc4cccc(C(=O)O)c4OB3O)c3c(F)cc(O)cc3F)C(=O)C2=O)CC1 (single isomer, unassigned) has a reported MIC of > 64 µg/mL

Lookup result for CCN1CCN(C(=O)NC(C(=O)N[C@H]2Cc3cccc(C(=O)O)c3OB2O)c2ccc(O)c(NC(=O)c3ccc(O)c(O)c3Cl)c2)C(=O)C1=O (stereo partly shown) ; measured MIC: > 64 µg/mL

Measured MIC, NCCN1CCN(C(=O)N[C@@H](C(=O)N[C@H]2Cc3cccc(C(=O)O)c3OB2O)c2c(O)cc(O)cc2F)C(=O)C1=O (single isomer, unassigned) : > 64 µg/mL

Given item NC(=O)c1ccc(C(NC(=O)N2CCN(CCF)C(=O)C2=O)C(=O)N[C@H]2Cc3cccc(C(=O)O)c3OB2O)cc1O (stereo partly shown) , the value recorded as its MIC is 16 to 32 µg/mL

Take each entry in turn and give its MIC.
1. CCN1CCN(C(=O)NC(C(=O)N[C@H]2Cc3cccc(C(=O)O)c3OB2O)c2cc(F)c(C(=O)O)c(F)c2)C(=O)C1=O (stereo partly shown)
2. CS(=O)(=O)N1CCN(C(=O)N[C@H](C(=O)N[C@H]2Cc3cccc(C(=O)O)c3OB2O)c2c(F)cc(O)cc2F)C1=O (single isomer, unassigned)
3. CCN1CCN(C(=O)NC(C(=O)N[C@H]2Cc3cccc(C(=O)O)c3OB2O)c2c(F)c(F)c(O)c(F)c2F)C(=O)C1=O (stereo partly shown)

(A)
1 to 2 µg/mL
> 64 µg/mL
1 to 2 µg/mL

---

test system: E. coli AG100A; assay: Broth microdilution MIC in CAMHB; type: cell-based; conditions: Escherichia coli, read-out: Minimum Inhibitory Concentration, E. coli AG100A
parameter-measured: MIC

Past entries and their recorded results:
The recorded MIC for NC(=O)c1ccc(C(NC(=O)N2CCN(CCF)C(=O)C2=O)C(=O)N[C@H]2Cc3cccc(C(=O)O)c3OB2O)cc1O (some centres unmarked) is 2 to 4 µg/mL

Recorded result, NCCCN1CCN(C(=O)N[C@@H](C(=O)N[C@H]2Cc3cccc(C(=O)O)c3OB2O)c2ncc(O)cc2F)C(=O)C1=O , MIC: 0.5 to 1 µg/mL

Short answer for NCCN1CCN(C(=O)N[C@@H](C(=O)N[C@H]2Cc3cccc(C(=O)O)c3OB2O)c2cc(F)c(O)c(F)c2F)C(=O)C1=O (single isomer, unassigned) : MIC was 0.5 to 1 µg/mL

Value of MIC reported for the compound NC1(CN2CCN(C(=O)N[C@@H](C(=O)N[C@H]3Cc4cccc(C(=O)O)c4OB3O)c3c(F)cc(O)cc3F)C(=O)C2=O)CC1 (single isomer, unassigned) is 2 to 4 µg/mL

For NCCN1CCN(C(=O)N[C@@H](C(=O)N[C@H]2Cc3cccc(C(=O)O)c3OB2O)c2c(O)cc(O)cc2F)C(=O)C1=O (single isomer, unassigned) the compound record lists MIC as 2 to 4 µg/mL

Would you be so kind as to report MIC for each listed record?
1. CCN1CCN(C(=O)NC(C(=O)N[C@H]2Cc3cccc(C(=O)O)c3OB2O)c2c(F)cc(NC(C)=O)cc2F)C(=O)C1=O (some centres unmarked)
2. NCCN1CCN(C(=O)N[C@@H](C(=O)N[C@H]2Cc3cccc(C(=O)O)c3OB2O)c2ccc(O)cc2Cl)C(=O)C1=O (single isomer, unassigned)
3. CCN1CCN(C(=O)N[C@@H](C(=O)N[C@H]2Cc3cccc(C(=O)O)c3OB2O)c2ccc(C(=O)O)c(Cl)c2F)C(=O)C1=O (single isomer, unassigned)
4. NCCN1CCN(C(=O)N[C@H](C(=O)N[C@H]2Cc3cccc(C(=O)O)c3OB2O)c2ccc(O)cc2Cl)C(=O)C1=O (single isomer, unassigned)
5. CCN1CCN(C(=O)N[C@H](C(=O)N[C@H]2Cc3cccc(C(=O)O)c3OB2O)c2nc(Cl)c(C(=O)O)cc2F)C(=O)C1=O
6. NCCN1CCN(C(=O)N[C@@H](C(=O)N[C@H]2Cc3cccc(C(=O)O)c3OB2O)c2ccc(O)c(F)c2F)C(=O)C1=O (single isomer, unassigned)

(A)
1. 2 to 4 µg/mL
2. 2 to 4 µg/mL
3. > 128 µg/mL
4. 32 to 64 µg/mL
5. 32 to 64 µg/mL
6. 2 to 4 µg/mL
